Every entry's value here was drawn from PubChem BioAssay (NCI).

test: NCI Yeast Anticancer Drug Screen. Data for the bub3 strain (AID 167); conditions: S. cerevisiae bub3 mutant strain, at 5.0 µM (retest, dose inferred, filed as 0.5), active compounds read high
The panel holds about 79,000 compounds, 15% with a hit somewhere; the sample as a whole holds those more often.
Quick reference: growth inhibition of the listed items.
property: growth inhibition (%)

1. O=[N+]([O-])c1ccccc1N=Nc1c(O)[nH]c2cccc(C(F)(F)F)c12: 47
2. N=C(N)c1ccc(Oc2ccc(Oc3ccc(C(=N)N)cc3)cc2)cc1: 53
3. ON(C(=Nc1ccc(Cl)cc1)c1ccccc1)c1ccccc1: 7
4. c1ccc(Nc2cccc3ccccc23)cc1: 43
5. ClC(Cl)(Cl)C(c1ccccc1)c1ccccc1: -5
6. c1ccc([P+](CCCCCC[P+](c2ccccc2)(c2ccccc2)c2ccccc2)(c2ccccc2)c2ccccc2)cc1: 43
7. S=C(S)NCCN1CCNCC1: -6
8. O=C(CSc1nnc(-c2ccc(N=Cc3ccc(Cl)cc3)cc2)o1)Nc1ccccc1Cl: -1
9. CCC(C)SSc1ccccc1C(=O)Nc1ccc(Cl)cc1 (configuration not stated): -2
10. Cc1cccc(NC(=O)CCc2ccc(Cl)cc2)n1: -1
11. O=[N+]([O-])C1(CO)COC(CCc2ccccc2)OC1 (configuration not stated): -2
12. CN(C)C(=S)SC1(CN2CCOCC2)COc2c(Cl)cc(Cl)cc2C1=O (configuration not stated): 5
13. CN(CCO)CCn1cnc2c1c(=O)n(C)c(=O)n2C: -4
14. CCOC(=O)c1ccc2c3c([nH]c2c1C)-c1ccccc1CC3: 1
15. CC(=O)OCc1c2ccccc2c(C)c2c1cc(F)c1ccccc12: 15
16. O=[N+]([O-])C(/C=C(\Cl)n1nnc2ccccc21)=C(/Cl)n1nnc2ccccc21: 27
17. CCOC(=O)/C=C(/Cl)C(=O)OCC: 18
18. Cc1ccc(S(=O)(=O)/C=C/C(=O)c2ccc3ccccc3c2)cc1: 47
19. Cc1ccc(NC(=O)CC2SC(=Nc3ccc(Cl)cc3)NC2=O)cc1C (configuration not stated): 89
20. CC1CCC2(OC1)OC1CC3C4CCC5CC(OC6OC(COC7OC(CO)C(O)C(O)C7O)C(OC7OC(C)C(O)C(O)C7O)C(O)C6OC6OC(CO)C(O)C(O)C6O)CCC5(C)C4CCC3(C)C1C2C (configuration not stated): 15
21. Cc1cc2nc(CC(=O)c3ccc4ccccc4c3)c(=O)[nH]c2cc1C: 13
22. ClC1=C(Cl)C(Cl)=C(Cl)C1: 4

---

assay: NCI Yeast Anticancer Drug Screen. Data for the bub3 strain (AID 167); conditions: S. cerevisiae bub3 mutant strain, at 5.0 µM (retest, dose inferred, filed as 0.5), active compounds read high
About 79,000 compounds went through this panel and 15% of them were active in at least one assay; those are over-represented in the sample as a whole.
property: growth inhibition (%)

1. OCCOc1ccc2ccccc2c1-c1c(OCCOc2ccc3ccccc3c2-c2c(OCCO)ccc3ccccc23)ccc2ccccc12: -2
2. CCN(CC)CCC(=O)OC1C(C)=CC(C)C(=O)CC(C(C)CC2CCC(O)C(OC)C2)OC(=O)C2CCCCN2C(=O)C(=O)[C@@]2(O)OC(CCC2C)CC(OC)\C(C)=C/C=C/C=C/C(C)CC(C)C(=O)C1OC (some centres not stated): 53
3. Cc1c(O)c2c(c(O)c1Br)C(=O)C=CC2=O: 98
4. COC(OC)(c1ccccc1)C(Br)Br: -25
5. Cc1[nH]nc(C(=O)N(C)C)c1N=NN(C)C: -65
6. COC(=O)c1ccc(SCC(=O)c2ccc([N+](=O)[O-])o2)cc1: -5
7. CN(C)C(=S)/N=c1\ss/c(=N\C(=S)N(C)C)n1-c1cccc(Cl)c1: 3
8. O=C(O)c1cccc(N=Nc2c(S(=O)(=O)O)ccc3c2C(=O)c2ccccc2C3=O)c1O: -11
9. O=[N+]([O-])c1cccc2c(O)cccc12: -1
10. O=[N+]([O-])c1ccc(NS(=O)(=O)c2ccccc2)c(NS(=O)(=O)c2ccccc2)c1: 6
11. O=C1CCS(=O)(=O)c2ccccc21: 34
12. N#Cc1ccc(C(F)(F)F)cc1[N+](=O)[O-]: 31
13. COc1cc2c(c(O)c1OC)-c1c(cc(OC)c(OC)c1OC)CC(C)C(C)C2 (configuration not stated): 9
14. CCOC(=O)NC(=S)Nc1ccsc1: -3
15. c1ccc(-c2ccc(-c3ccc(C4=NCCN4)cc3)o2)cc1: 4
16. CCCC/C=C\CCCCCCCCCC1=C(O)C(=O)C=C(OC)C1=O: 77
17. O=C1Nc2ccc([N+](=O)[O-])c3c([N+](=O)[O-])ccc1c23: 2
18. O=[N+]([O-])c1cnc(F)c(Br)c1: 99
19. CCCC[N-]CC(O)C[NH-].O=C(O)CC(=O)O.[Pt+2] (configuration not stated): 3
20. CCCCCCCCCCCCCC1=NCC(C)(C)N1: 89
21. CCCCCCCCCCCC(=O)N(CCOC(=O)c1ccco1)CCOC(=O)c1ccco1: 34
22. C(/C=C/CC=Nc1ccccc1)=Nc1ccccc1: -4

---

experiment: NCI Yeast Anticancer Drug Screen. Data for the sgs1 mgt1 strain (AID 161);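 note: 0% = growth of cultures given vehicle only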; details: S. cerevisiae sgs1 mgt1 strain, at 50.0 µM (retest, dose inferred, filed as 5.0), active compounds read high
Compounds without any hit were thinned out: in the full panel of roughly 79,000, 15% have a hit.
Quick reference: growth inhibition of the listed items.
property: growth inhibition (%)

1. O=C(O)CC1c2ccc3ccccc3c2CCC1c1ccccc1 (stereo not drawn): 99
2. CCOC(=O)Cc1csc(/C=C/c2ccc(OC)c(OC)c2)n1: 14
3. Nc1nc(Cl)cc(NCC2(CO)CC(CCCc3ccccc3)C2)n1 (stereo not drawn): 12
4. O=C(O)c1cc2ccc3cccc4ccc(c1)c2c34: 94
5. CCCC#CC(O)(C(=O)OC1CCN(C)CC1)C1CCCCC1 (stereo not drawn): 69
6. CC(=O)OC1=CC2=CCC3C(CCC4(C)C(C(C)=O)CCC34)C2(C)CC1 (stereo not drawn): 8
7. S=C(Nc1ccccc1)[S][Sb]([S]C(=S)Nc1ccccc1)[c]1ccccc1: 77
8. CCC(=O)N(CCC(C)C)c1ccccc1: 1
9. Oc1ccc(N=Nc2ccccc2)c(O)c1.Oc1ccc(N=Nc2ccccc2)c(O)c1.[Cu]: 97
10. CNC(=O)N(C1=NCC(C)S1)c1ccc(C)c(C)c1 (stereo not drawn): 95
11. Cc1ccccc1NC(=S)Nc1ccccc1O: 82
12. ONC1=Nc2ccccc2OCc2cc(Br)c(Br)cc2COc2ccccc2N=C1NO: 89
13. Cc1[nH]nc(C(F)(F)F)c1N=NN1CCOCC1: 99
14. Cc1cc(S(=O)(=O)Nc2nc(N)nc(N(C)C)n2)c(SC(C(=O)O)c2ccccc2)cc1Cl (stereo not drawn): -8
15. COc1cc(C/C=C/c2ccccc2)c(OC)cc1O: 37
16. CCOC(=O)/C(=C/O)c1c[nH]c2ccccc12: 95
17. CCCCCCCCCCCCNC(=O)OCC(C)O (stereo not drawn) (tested in a mixture with another compound): 98
18. NS(=O)(=O)c1ccc(N=Cc2c3ccccc3nc3cc(Cl)ccc23)cc1: 39
19. CC(=O)C(C(=O)CCSCCO)C(SCCO)c1ccc(Cl)c(Cl)c1 (stereo not drawn): 81
20. CCN1/C(=C/C(C)=C/c2sc3ccccc3[n+]2CC)Sc2ccccc21: 100
21. CCCCCCCCCCCCCC1=NCC(C)(C)N1: 100
22. Nc1ccc(-c2ccc(Cl)cc2)cc1: 78
23. C/C=C/C1=C(Cl)C(=O)[C@@H](Cl)[C@@]1(O)C(=O)OC: 99

---

Quick reference: growth inhibition of the listed items.
Experiment: NCI Yeast Anticancer Drug Screen. Data for the cln2 rad14 strain (AID 165);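 note: 0% = growth equal to vehicle treated cultures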
Conditions: S. cerevisiae cln2 rad14 strain, at 50.0 µM, active compounds read high
Experimental: Growth inhibition of yeast strains with defined genetic alterations is measured as a screen for potential anti-cancer activity. Selected strains with alterations in DNA damage repair or cell cycle control were exposed to compounds and growth inhibition was measured relative to vehicle treated controls. The strain used in this assay is cln2 rad14
Compounds without any hit were thinned out: in the full panel of roughly 79,000, 15% have a hit.
property: growth inhibition (%)

1) Cc1csc(N)[n+]1CCC(=O)[O-]: 31.5
2) NC(=S)Nc1c(Br)cc(Br)cc1Br: 23.1
3) O=C(SCCCc1ccccc1)c1cc([N+](=O)[O-])cc([N+](=O)[O-])c1: 78.6
4) CCC(O)C(O)(c1ccccc1)c1nc2ccccc2s1 (centres undefined): 2.2
5) COc1ccc(C2c3cc4c(cc3OC(N3CCOCC3)C2C)OCO4)c(OC)c1 (centres undefined): 73.2
6) Cc1ccc(C(=O)C(F)(F)F)cc1: 32.1
7) CN(C(=O)c1cccs1)C(=S)N1CCN(c2ccccc2)CC1: 49.9
8) CCOC(=O)N(c1ccccc1)N(CC)C(=O)/C(C)=N/Nc1ccc([N+](=O)[O-])cc1: 92.2
9) COc1ccc(C(=O)O)c(-c2c(C(=O)O)ccc(OC)c2OC(C)=O)c1: 63.7
10) COc1cc2c(c(O)c1OC)-c1c(cc(OC)c(OC)c1OC)CC(C)C(C)C2 (centres undefined): 51.5
11) CCCC(=O)Oc1ccc(OCc2ccccc2)cc1: -41.8
12) [O-][n+]1ccc(Br)c(/C=C/c2ccccc2)c1: 2.3
13) CC(O)C1CCCC[N+]1(C)C (centres undefined): -7.6
14) Cc1ccc(Sc2ccc(C)cc2[N+](=O)[O-])c([N+](=O)[O-])c1: 20.5
15) COc1ccc(CCN2CC(=O)N3CSCC3C2=O)cc1OC (centres undefined): 25.4
16) CCCCCCCCCCCCNCc1ccc(Cl)c(Cl)c1: 99.6
17) Cn1c2c(c3ccccc31)CCN(CCN1CCN(c3ccccc3)CC1)C2=O: 60.6
18) Nc1cc(Cl)ccc1SSc1ccc(Cl)cc1N: -74.8
19) COC(=O)CC1C(=O)OCc2c1cc1n(c2=O)Cc2c-1nc1ccccc1c2OC (centres undefined): 20.4
20) CC(C)(C)OC(=O)CSC#N: 3.75
21) CC1=C(C(=O)Nc2ccccc2C)C(c2ccccc2F)C(C(=O)Nc2ccccc2C)=C(C)N1: -23.1
22) COc1ccc(C2=C(Cl)C(=O)N(c3ccc(O)cc3)C(=O)C2(Cl)Cl)cc1: 58
23) C/C(CCC(=O)O)=N/Nc1ccc(C(=O)O)cc1: 5.85
24) O=C(C[N+]1(CCc2ccccc2)CCOCC1)c1ccc(-c2ccccc2)cc1: 98.4
